Target: lysine methyltransferase SET8 (Homo sapiens, UniProt Q9NQR1)
Construct: purchased Cayman Company
Sequence (Q9NQR1 whole entry): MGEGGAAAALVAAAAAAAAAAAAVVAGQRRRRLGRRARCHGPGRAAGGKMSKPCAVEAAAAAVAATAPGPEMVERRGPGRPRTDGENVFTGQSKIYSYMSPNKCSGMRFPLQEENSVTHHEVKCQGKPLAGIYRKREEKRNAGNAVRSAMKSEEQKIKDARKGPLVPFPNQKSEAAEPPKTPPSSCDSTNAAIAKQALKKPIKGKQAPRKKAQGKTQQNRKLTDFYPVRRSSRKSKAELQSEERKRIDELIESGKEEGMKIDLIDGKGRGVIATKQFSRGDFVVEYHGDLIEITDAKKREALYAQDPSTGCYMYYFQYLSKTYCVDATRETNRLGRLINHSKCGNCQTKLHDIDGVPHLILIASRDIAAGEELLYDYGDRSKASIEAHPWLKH
Test: SET8 methyltransferase inhibitor screening assay kit (Cayman), fluorescence
Type: biochemical
Conditions: incubation at 37° C. for 10 min; inhibitor concentration not given
measurement-type: Inhibition Rate (%)
Please respond with the number in % and leave the unit unwritten.

Below, each entry is followed by its recorded Inhibition Rate (%) result.
[
  {
    "molecule": "COc1ccc(Cc2nc(C(C)(C)C)n(C3CCN(C)CC3)n2)cc1 [Compound 19]",
    "test-target": "lysine methyltransferase SET8 (Homo sapiens, UniProt Q9NQR1)",
    "unit-annotation": "%",
    "Inhibition Rate (%)": 45.2
  },
  {
    "molecule": "COc1ccc(Cc2nc(C3CNCCO3)n(C)n2)cc1 (centres unmarked) [Compound 8]",
    "test-target": "lysine methyltransferase SET8 (Homo sapiens, UniProt Q9NQR1)",
    "unit-annotation": "%",
    "Inhibition Rate (%)": 69.3
  },
  {
    "molecule": "COc1ccc(Cc2nc(C3CNCCO3)n(-c3ccccc3)n2)cc1 (centres unmarked) [Compound 4]",
    "test-target": "lysine methyltransferase SET8 (Homo sapiens, UniProt Q9NQR1)",
    "unit-annotation": "%",
    "Inhibition Rate (%)": 71.5
  }
]

If you can, please state the reported Inhibition Rate (%) value of COc1ccc(Cc2nc(C)n(C3CCN(C)CC3)n2)cc1 [Compound 20] .
76.9

If you can, please state the reported Inhibition Rate (%) value of COc1ccc(Cc2nc(C3CNCCO3)n(-c3cccc(C)c3)n2)cc1 (centres unmarked) [Compound 5] .
70.2

FYI, the data here is from patent US12281107B2.
